- target desc: T1, recombinant human IL-1α (human) (UniProt P01583)
- T1 sequence: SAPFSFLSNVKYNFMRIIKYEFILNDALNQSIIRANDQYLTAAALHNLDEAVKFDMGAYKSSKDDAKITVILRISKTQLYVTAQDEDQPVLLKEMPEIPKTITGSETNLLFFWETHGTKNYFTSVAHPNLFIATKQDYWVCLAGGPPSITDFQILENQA
- assay procedure: cell-based or functional assay
# Neutralization Potency (IC50, pM), MRC-5 bioassay (IL-8 production) per entry
value type: Neutralization Potency (IC50, pM), MRC-5 bioassay (IL-8 production)

binder: humanized anti-human IL-1α antibody H3D12.r16 (antibody, from a related filing, human IgG1, V domains shown) VH: EVQLVQSGAEVKKPGASVKVSCKASGYTFKYYGMNWVRQAPGQGLERMGWINTYTGQSTYADDFKGRVTFTLDTSTSTAYMELSSLRSEDTAVYYCARDIYYYGSDFAMDYWGQGTTVTVSS VL: DIQMTQSPSSLSASVGDRVTITCRASQDISNMLNWYQQKPGKAPKLLIYYTSRLKPGVPSRFSGSGSGTDYTFTISSLQPEDIATYFCQQGKTAPYTFGQGTKLEIK
unit label: pM
assay value: 0.6
//
binder: humanized anti-human IL-1α antibody H3D12.r10 (antibody, from a related filing, human IgG1, V domains shown) VH: EIQLVQSGAEVKKPGASVKVSCKASGYTFAHYGMNWVRQAPGQGLEWMGWINTYTGQSTYADDFKGRFTFTLDTSTSTAYMELSSLRSEDTAVYYCARGIYYFGSNYAMDYWGQGTTVTVSS VL: DIQMTQSPSSLSASVGDRVTITCRASQDISNMLNWYQQKPGKTPKLLIYYTSRLRSGVPSRFSGSGSGTDYTFTISSLQPEDIATYFCQQGKKPPYTFGQGTKLEIK
unit label: pM
assay value: 0.6
//
binder: humanized anti-human IL-1α antibody H3D12.16 (antibody, from a related filing, human IgG1, V domains shown) VH: EIQLVQSGAEVKKPGASVKVSCKASGYTFTNYGMNWVRQAPGQDLERMAWINTYTGESTYADDFKGRFTFTLDTSTSTAYMELSSLRSEDTAVYFCARGIYYYGSSYAMDYWGQGTTVTVSS VL: DIQMTQSPSSLSASVGDRVTITCRASQDISNCLNWYQQKPGKTPKLLIYYTSRLHSGVPSRFSGSGSGTDYTFTISSLQPEDIATYFCQQGKTLPYAFGQGTKLEIK
unit label: pM
assay value: 1360
